Sourced from patent US20210198277A1

MEASUREMENT TARGET: EHMT1 (Homo sapiens)
Sequence (Q9H9B1 1-1298): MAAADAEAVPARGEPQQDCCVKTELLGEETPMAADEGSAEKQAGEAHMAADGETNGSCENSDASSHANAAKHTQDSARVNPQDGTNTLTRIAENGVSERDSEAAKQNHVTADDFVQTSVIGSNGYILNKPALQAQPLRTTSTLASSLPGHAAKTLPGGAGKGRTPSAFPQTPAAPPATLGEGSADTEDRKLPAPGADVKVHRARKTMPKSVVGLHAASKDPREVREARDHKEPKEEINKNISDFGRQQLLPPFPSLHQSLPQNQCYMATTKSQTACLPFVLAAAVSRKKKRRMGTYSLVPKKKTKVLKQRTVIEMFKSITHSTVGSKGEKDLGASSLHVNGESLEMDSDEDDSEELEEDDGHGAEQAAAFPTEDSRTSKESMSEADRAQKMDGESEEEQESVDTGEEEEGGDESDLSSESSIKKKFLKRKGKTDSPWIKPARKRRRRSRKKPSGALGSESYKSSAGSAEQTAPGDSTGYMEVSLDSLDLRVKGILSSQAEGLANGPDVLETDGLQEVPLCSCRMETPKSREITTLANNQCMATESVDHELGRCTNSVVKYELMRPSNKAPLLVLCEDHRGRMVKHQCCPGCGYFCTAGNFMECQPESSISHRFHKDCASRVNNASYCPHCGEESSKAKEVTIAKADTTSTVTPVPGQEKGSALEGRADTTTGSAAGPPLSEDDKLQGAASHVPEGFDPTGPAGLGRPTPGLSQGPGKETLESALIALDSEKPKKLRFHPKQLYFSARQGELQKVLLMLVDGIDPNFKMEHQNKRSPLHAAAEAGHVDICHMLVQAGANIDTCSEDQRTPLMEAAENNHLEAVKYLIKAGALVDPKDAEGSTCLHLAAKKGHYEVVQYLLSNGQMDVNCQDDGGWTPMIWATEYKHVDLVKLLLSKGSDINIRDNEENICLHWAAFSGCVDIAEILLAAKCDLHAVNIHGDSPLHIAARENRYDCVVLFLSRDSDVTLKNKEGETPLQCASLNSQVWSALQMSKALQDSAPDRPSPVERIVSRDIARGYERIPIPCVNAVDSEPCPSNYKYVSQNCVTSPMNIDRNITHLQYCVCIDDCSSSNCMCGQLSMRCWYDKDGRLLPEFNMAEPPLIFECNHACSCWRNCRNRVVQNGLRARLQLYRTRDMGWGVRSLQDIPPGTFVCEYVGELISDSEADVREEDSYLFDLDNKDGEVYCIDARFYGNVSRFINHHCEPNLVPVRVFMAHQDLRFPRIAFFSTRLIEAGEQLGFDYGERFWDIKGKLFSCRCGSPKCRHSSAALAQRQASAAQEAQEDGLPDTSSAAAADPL
PROTOCOL SUMMARY: EHMT1 enzyme assay on peptide substrate (EHMT1 PEP)
Type: biochemical
RUN CONDITIONS: Table VI; read-out: EHMT1 PEP IC50
Record form. Attribute: IC50. Fill in for each entry.

Please review the following examples before continuing.
Query block: What value of IC50 has been reported for the following compound? CNc1cc(CC2CCOCC2)c2cc(OC)c(OCCCN3CCCC3)cc2n1 [Compound 823]
Result block: < 100 nM

Query block: Bench note: what IC50 did CNc1cc(C#CCN2CCOCC2)cc2cc(OCCCN3CCCC3)c(OC)cc12 [Compound 784] show?
Result block: 1000 to 10000 nM

Query block: Param item = CNc1cc(C)nc(Nc2ccc(OC)c(OCCCc3nc(Cl)cn3C)c2)n1 [Compound 891] ; retrieve measured IC50.
Result block: > 10000 nM

Query block: I would be grateful if you could share the reported IC50 for COc1cc2c(C3CCN(C4CCOC4)CC3)cc(C)nc2cc1OCCCN1CCCC1 (stereo not drawn) [Compound 756] .
Result block: < 100 nM

Quick one: give me IC50 for each item below, same order please.
1. COc1cc2c(C3CCN(C)CC3)c(F)c(C)nc2cc1OCCCN1CCCC1 [Compound 652]
2. COc1cc2c(C3CCN(C)CC3)cc(-c3cc[nH]n3)nc2cc1OCCCN1CCCC1 [Compound 678]
3. CNc1cc(C)nc(Nc2ccc(OC)c(OCC(O)CN3CCCC3)c2)n1 (stereo in doubt) [Compound 906]
4. COc1cc2c(C3CCN(C)CC3)nc(C)nc2cc1OCCCN1CCCC1 [Compound 658]
5. CCc1nc(NC2CCNCC2)ncc1OCC1CCN(C)C1 (stereo not drawn) [Compound 630]
6. COc1cc2c(C3CCOCC3)cc(C)nc2cc1OCCCN1CCCC1 [Compound 668]

Result block:
1. < 100 nM
2. 100 to 1000 nM
3. < 100 nM
4. 100 to 1000 nM
5. > 10000 nM
6. 100 to 1000 nM

Kindly give each listed record's IC50.
1. COc1cc2c(C3CCN(CCC(F)(F)F)CC3)cc(C)nc2cc1OCCCN1CCCC1 [Compound 838]
2. CCN1CC(COc2cc3nc(NC)nc(C4CCN(C)CC4)c3cc2OC)C1 [Compound 951]
3. COc1cc2cc(C#N)c(C)nc2cc1OCCCN1CCCC1 [Compound 895]

Result block:
< 100 nM
< 100 nM
> 10000 nM

List the reported IC50 of each compound below.
1. CCN1CC[C@@H](COc2cc(Nc3nc(C)cc(NCC4CCOCC4)n3)ccc2OC)C1 [Compound 667]
2. CNc1ccnc(Nc2ccc(OC)c(OCCC(C)N3CCC3)c2)n1 (stereo not drawn) [Compound 1014]
3. CNc1ccnc(Nc2ccc(OC)c(OCC[C@H]3CCCN3)c2)n1 [Compound 1022]
4. CNc1ccnc(Nc2ccc(OC)c(OCC[C@@H]3CCCN3)c2)n1 [Compound 1021]
5. CNc1cc(C)nc(Nc2ccc(OC)c(OC[C@H](O)CN3CCC3)c2)n1 [Compound 1038]

Result block:
1: < 100 nM; 2: 100 to 1000 nM; 3: 100 to 1000 nM; 4: 100 to 1000 nM; 5: < 100 nM
